- System: MDA-MB-435 melanoma
- TEST NAME: NCI-60 one-dose screen, 48 h (100 = growth as untreated, 0 = no growth, -100 = all killed)
- MEASUREMENT CONTEXT: 10 µM unless noted
- Experimental: Growth inhibition of the MDA-MB-435 human Melanoma tumor cell line is measured as a screen for anti-cancer activity. Cells are grown in 96 well plates and exposed to the test compound for 48 hours. Compounds are tested at a single concentration, which is 10^-5 M for most compounds. The reported endpoint is percent growth (GI% or GIPRCNT), where numbers from 0 - 100% represent growth inhibition, and numbers from -100% - 0 represent cell death. […]
The panel holds about 83,000 compounds, 20% with a hit somewhere; the sample as a whole holds those more often.
// reported growth for each item listed
Reply with just the number (in %).

Illustrative cases are given below, each with its answer.
COMPOUND	EXPERIMENTAL TARGET	MEASUREMENT NAME	UNIT LABEL	QUANTITATIVE READOUT
COc1ccc2c(c1)C(=O)c1c-2c(OCCN(C)C)nc2cc(OC)ccc12	MDA-MB-435 melanoma	growth	%	18.5
O=C(Nc1ccc(Nc2ccncc2)cc1)c1ccc(Nc2ccnc3ccc([N+](=O)[O-])cc23)cc1[N+](=O)[O-]	MDA-MB-435 melanoma	growth	%	63.1
Cc1cc2c(C#N)n3c(c2cc1C)C(=O)C(c1ccccc1)Oc1ccccc1-3 (stereo unspecified)	MDA-MB-435 melanoma	growth	%	0.71

Could you tell me which growth is on file for COc1ccc(-n2nnc(C(=O)O)c2-c2cc(OC)c(OC)c(OC)c2)cc1 ?
121

Again, but for O=C(C(=O)N1CCCCC1)c1ccc(OC2OC(CO)C(O)C(O)C2O)cc1 (stereo unspecified)
107

# repeat for O=C1CC(=O)N(c2ccccc2)O1
104

Also COC(=O)[C@]1(C(C)C)N[C@H](c2cn(-c3ccccc3)nc2-c2ccccc2)[C@@H]2C(=O)N(c3ccc(Cl)cc3)C(=O)[C@@H]21 ?
105

Another compound to check: CC(=O)c1cc(C(=O)c2ccc3c(c2)Sc2ccccc2N3)c2c(C)cc(C)cn12
-22.1

Now consider CN(CC(=O)Nc1nc2ccccc2[nH]1)S(=O)(=O)c1ccc(Cl)cc1 and answer again.
91.2

Note, next up: N=C(N)/N=C(\CCc1nc2ccccc2[nH]1)c1nc2ccccc2[nH]1
109

Now give it for N#Cc1cccc(/C=C(/C(=O)c2ccccc2)c2ccccc2)c1 too.
8.38

Param item: COc1ccc2nc3cc(Cl)ccc3c(Nc3cc(C(C)C)c(O)cc3C)c2c1
30.8

Follow-up entry: CN1C(=O)/C(=C/c2nc(-c3cccc(F)c3)n3ccccc23)c2ccccc21
93.6

Next: CC(c1ccccn1)C(C)(O)C(C)c1ccccn1 (stereo unspecified)
104

Follow-up item: CCCCCCCCCCCCCCCCN=C(CC(=O)O)C(=O)O
96.7

// next record O=C(O)c1ccc(NC(=O)c2cccc(Nc3ccnc(C(F)(F)F)c3)c2)cc1
106

Item: Cc1c(C(N)=O)sc2c1c(=O)n(Cc1ccccc1)c1nnc(SCC(=O)Nc3ccc(Cl)cc3)n21
40.7

Next compound: O=C(Nc1ccc(OCc2nnc(-c3ccccc3)o2)c(F)c1)Nc1ccc(Cl)c(C(F)(F)F)c1
27.5

Now this one: Cc1cc(C(C)(C)C)cc(C)c1CC1=NCCN1
100

Lookup Cn1cc(-c2nc(-c3c[nH]c4ncc(F)cc34)cs2)c2cccnc21
98.2

Consider next the compound COc1ccc(/C=C/C(=O)Nc2cccnc2Nc2ccc(F)cc2)cc1 in the same way.
94.4
